viability increase values by entry
# Assay Name: viability gain of MRP-1-high H69AR cells under doxorubicin, pilot screen, MRP-1 activator project, CellTiter-Glo, duplicate (AID 807);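 further: compound pretreatment 18-22 h then 72 h combined with doxorubicin; 0% = doxorubicin alone and 100% = vehicle without doxorubicin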
# Condition Set: H69AR viability with doxorubicin, CellTiter-Glo luminescence; at 10 µM; hits give high values
Reported Property: viability increase (%)

>>> print(df.to_string())
                                    molecule  experimental_result
 0     COCc1cc(=O)n2c(-c3ccc(C)cc3)n[nH]c2n1                -0.72
 1      C(#Cc1ccc(C#CCN2CCOCC2)cc1)CN1CCOCC1                -0.83
 2  CCC/C(O)=C1\C(=O)CC(C)(C)CC1=Nc1ccccc1OC                -2.83
 3  CCN1C(=O)NC(c2cccnc2)C(C(=O)OC)=C1C (stereo unspecified)                 -1.3
 4  COc1cccc(-n2c(Cc3cc(=O)[nH]c(=O)[nH]3)nnc2SCc2cccnc2)c1                 0.52
 5       Cn1cc(CC(=O)NCCCN2CCCC2=O)c2ccccc21                -1.83
 6  CCCCCCC1C(C#N)=C(N)OC2=C1C(=O)CCC2 (stereo unspecified)                -2.64
 7  O=C(NC1CCCC1)c1ccc(CS(=O)(=O)c2ccc(Br)cc2)o1                -0.83
 8              CC1(C)NC(C)(C)c2nonc2/C1=N\O                 0.39
 9     OCCN1CCN(Cc2cccc(Oc3ccc(Cl)cc3)c2)CC1                -3.74
10  COc1ccc(-c2nnc(SCC(=O)NC(C)c3ccccc3)o2)cc1OC (stereo unspecified)                -1.24

---

RAM network inhibition values by entry
# Assay Name: RAM signaling pathway blockade in yeast – S. cerevisiae, Pdr1DBD-CYC8 efflux-inhibited sensitized strain, primary screen (AID 1298);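 further: 0% = DMSO untreated cells without growth and 100% = 10 µM 1-NA-PP1 full growth; higher means more yeast growth rescued from 5-FOA killing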
# Condition Set: S. cerevisiae cbk1-as DSE1-URA3 strain, 5-FOA growth OD615, 2 d; at 50 µM; hits give high values
Reported Property: RAM network inhibition (%)

In [3]: df
Out[3]:
                                    compound       reported_property  unit_of_measure  experimental_result
 0  O=C1CC(c2ccccc2)CN1S(=O)(=O)c1ccccc1 (stereo not given)  RAM network inhibition                %                 1.71
 1  CCOc1ccc(NC2c3ccccc3C(=O)N2c2ccc(Cl)cn2)cc1 (stereo not given)  RAM network inhibition                %                 3.42
 2              CCC(=O)Nc1nc2c(OC)ccc(C)c2s1  RAM network inhibition                %                 1.37
 3  CCOC(=O)N1CCN(C(=O)CS(=O)Cc2nc(-c3ccc(C)cc3)oc2C)CC1 (stereo not given)  RAM network inhibition                %                 7.07
 4      FC(F)(F)c1cccc(-c2ccc(-c3csnn3)o2)c1  RAM network inhibition                %                 9.48
 5  CC1CCc2nn(CC(=O)N3CCCCCC3)cc2C1 (stereo not given)  RAM network inhibition                %                 1.06
 6  O=C(NCCn1cc(SCC(=O)N2CCOCC2)c2ccccc21)c1ccccc1  RAM network inhibition                %                 0.78
 7                 COc1ccc(CN(C)C2CCCCC2)cc1  RAM network inhibition                %                 4.95
 8  CCN(CC)CCNC(=O)c1cn(CC)c2ccc(S(=O)(=O)N(C)C)cc2c1=O  RAM network inhibition                %                 2.04
 9  C/C=C/Cn1c(N(C)Cc2ccccc2)nc2c1c(=O)[nH]c(=O)n2C  RAM network inhibition                %                 3.49
10        CCOC(=O)CSCc1nc(-c2ccc(Cl)cc2)oc1C  RAM network inhibition                %                -1.32
11  COCCCNC(=O)CN(c1ccc(Cl)c(Cl)c1)S(C)(=O)=O  RAM network inhibition                %                -0.77
12    Cc1nn2c(=O)cc(CSc3nc4ccccc4[nH]3)nc2s1  RAM network inhibition                %                 0.17
13  CCCOc1ccc(C2c3c(oc4cc(C)c(C)cc4c3=O)C(=O)N2CCCN(C)C)cc1OCC (stereo not given)  RAM network inhibition                %                -0.16
14  O=C(O)c1cc(S(=O)(=O)N2CCCCCC2)c(Cl)cc1Cl  RAM network inhibition                %                  6.2
15          CC(=O)Nc1nnc(SCC(=O)NC(C)(C)C)s1  RAM network inhibition                %                 0.36
16       Cc1cc(Nc2ccc(Br)c(C)c2)n2nc(C)nc2n1  RAM network inhibition                %                 6.84
17  CC1(C)CC(=O)N(CC(=O)N2CCN(c3ncccn3)CC2)c2ccccc2S1(=O)=O  RAM network inhibition                %                -0.32
18             CCn1c2c(c3cc(Cl)ccc31)CCCC2=O  RAM network inhibition                %                 4.07
19  CN(CC(=O)NCCC1=CCCCC1)S(=O)(=O)c1ccc2c(c1)c(=O)n(C)c(=O)n2C  RAM network inhibition                %                  4.5
20  COc1ccc(-c2nnc(SCC(=O)NC(C)C)n2CC2CCCO2)cc1OC (stereo not given)  RAM network inhibition                %                -0.58
21            CCc1nc(N(CC)CC)c2oc3ccccc3c2n1  RAM network inhibition                %                 1.04
22  O=CN1CCN(C(C(=O)NC2CCCC2)c2ccc(Cl)cc2)CC1 (stereo not given)  RAM network inhibition                %                 2.38
23      O=C(NCCNC(=O)c1ccc(Br)o1)c1ccc(Br)o1  RAM network inhibition                %                  0.1
24  COCCOC(=O)C1=C(C)NC(=O)NC1C1CC=CCC1 (stereo not given)  RAM network inhibition                %                 5.08
25  COc1ccc2[nH]c(C)c(CCN3C(=O)C4C5C=CC(C5)C4C3=O)c2c1 (stereo not given)  RAM network inhibition                %                 4.02
26  CCC(Sc1nccn1C)C(=O)Nc1nnc(C)s1 (stereo not given)  RAM network inhibition                %                 1.93
27  N#CC(c1nc2ccccc2nc1N1CCCC1)S(=O)(=O)c1ccccc1 (stereo not given)  RAM network inhibition                %                 5.73
28  c1coc(-c2nc(-c3ccco3)c(-c3ccco3)nc2-c2ccco2)c1  RAM network inhibition                %                 0.57
29  COc1cccc(-c2nc(C(N)=O)c3[nH]c(=O)n(-c4cccc(Cl)c4)c3n2)c1OC  RAM network inhibition                %                 3.65
30  COc1cc(NC(=O)c2c(-c3ccccc3Cl)noc2C)c2ncccc2c1  RAM network inhibition                %                 7.52
31  O=C(COc1ccccc1)N1CCN(S(=O)(=O)c2cccs2)CC1  RAM network inhibition                %                 7.83
32            CCOCC(=O)NCc1ccc2c(c1)cc(C)n2C  RAM network inhibition                %                 0.21
33  CC(C)(C)C1CCc2c(sc(NC(=O)c3cc(C4CC4)on3)c2C#N)C1 (stereo not given)  RAM network inhibition                %                 2.83
34  CCOC(=O)C1CCN(C(=O)Cn2cc3c(n2)CCC(C)C3)CC1 (stereo not given)  RAM network inhibition                %                 1.77
35  Cc1ccccc1NC(=O)NCCN1C(=O)C2C3C=CC(C3)C2C1=O (stereo not given)  RAM network inhibition                %                 1.46
36  CCOC(=O)C1CCN(CC(O)COc2ccc(C(C)(C)CC)cc2)CC1 (stereo not given)  RAM network inhibition                %                 0.78
37  COc1ccccc1NC(=O)NCCN1C(=O)C2C3C=CC(C3)C2C1=O (stereo not given)  RAM network inhibition                %                 5.38
38  O=C(CCCc1c[nH]c2ccccc12)N1CCN(c2ccc(N3CCOCC3)nn2)CC1  RAM network inhibition                %                -0.41
39  CCC(C)NC(=O)c1ccccc1NC(=O)CN1C(=O)c2ccccc2S1(=O)=O (stereo not given)  RAM network inhibition                %                 5.02
40       N#Cc1nc(COc2ccc(Br)cc2)oc1N1CCCCCC1  RAM network inhibition                %                 7.31
41    NC(=O)C1(N2CCCCC2)CCN(C(=O)c2cccs2)CC1  RAM network inhibition                %                 1.19
42  c1ccc(N2CCOCC2)c(Nc2nc3ccccc3n3cnnc23)c1  RAM network inhibition                %                 9.05
43  CCOC(=O)C1CCN(C(=O)CN(c2ccc(OC)cc2)S(=O)(=O)c2c(C)nn(C)c2C)CC1  RAM network inhibition                %                 2.69
44          CCOC(=O)c1ccc(CSc2n[nH]c(C)n2)o1  RAM network inhibition                %                 1.95
